# System: DNA
# assay protocol: Stabilization of [32P]-labelled dsDNA (unknown origin) assessed as drug-DNA adduct formation at 1 uM to 24 uM incubated for 12 hrs in presence of formaldehyde by phosphorimaging analysis
# Type: nucleic-acid assay
Calls of active or inactive are those of the source. The calls are words filed in the database; no cut-off is given here.
Your response should consist of one outcome taken from active, inactive

Tell me the assay call for NCCCCCNc1ccc(NCCCCCN)c2c1C(=O)c1c(O)ccc(O)c1C2=O please. active

One more molecule: NCCNc1ccc(NCCN)c2c1C(=O)c1c(O)ccc(O)c1C2=O active

One more molecule: NCCCCCNc1ccc(F)c2c1C(=O)c1ccncc1C2=O inactive

One more molecule: NCCCCCNc1ccc(F)c2c1C(=O)c1c(O)ccc(O)c1C2=O active

One more molecule: NCCCCCNc1ccc(NCCCCCN)c2c1C(=O)c1ccncc1C2=O inactive

====

# Tested on: DNA
# assay protocol: Stabilization of dsBE17 oligonucleotide (unknown origin) assessed as drug-DNA adduct formation at 5 to 50 uM incubated for 4 hrs in presence of formaldehyde using [gamma-32P]ATP by phosphorimaging analysis
# Type: nucleic-acid assay
Active and inactive are the calls of the source. No cut-off for these calls is given here.
measure name: Activity

NCCNCCNc1ccc(F)c2c1C(=O)c1c(O)ccc(O)c1C2=O; Active
NCCCCCNc1ccc(NCCCCCN)c2c1C(=O)c1c(O)ccc(O)c1C2=O; Active
NCCNc1ccc(NCCN)c2c1C(=O)c1c(O)ccc(O)c1C2=O; Active
NCCCCCNc1ccc(F)c2c1C(=O)c1c(O)ccc(O)c1C2=O; Active

Turning now to a further record.
Quick check: Activity on DNA, item NCCNCCNc1ccc(NCCNCCN)c2c1C(=O)c1c(O)ccc(O)c1C2=O ? Active

====

Record form. Attribute: Activity. Fill in for each entry.
# Test system: DNA
# assay protocol: Stabilization of [32P]-labelled dsDNA (unknown origin) assessed as drug-DNA adduct formation at 5 uM in presence of formaldehyde incubated for 12 hrs by phosphorimaging analysis relative to control
# Assay type: nucleic-acid assay

Could you tell me which Activity is on file for NCCNCCNc1ccc(F)c2c1C(=O)c1c(O)ccc(O)c1C2=O ? 25%

One more molecule: NCCNCCNc1ccc(NCCNCCN)c2c1C(=O)c1c(O)ccc(O)c1C2=O 90 to 100%

One more molecule: NCCCCCNc1ccc(NCCCCCN)c2c1C(=O)c1ccncc1C2=O < 2%

One more molecule: NCCCCCNc1ccc(F)c2c1C(=O)c1ccncc1C2=O < 1%

One more molecule: O=C1c2c(O)ccc(O)c2C(=O)c2c(NCCNCCO)ccc(NCCNCCO)c21 5%

One more molecule: NCCNc1ccc(NCCN)c2c1C(=O)c1c(O)ccc(O)c1C2=O 30%

One more molecule: NCCCCCNc1ccc(NCCCCCN)c2c1C(=O)c1c(O)ccc(O)c1C2=O 40%

One more molecule: NCCCCCNc1ccc(F)c2c1C(=O)c1c(O)ccc(O)c1C2=O 50%

====

# Tested on: DNA
# assay protocol: Stabilization of dsBE67 oligonucleotide (unknown origin) assessed as drug-DNA adduct formation at 5 to 50 uM incubated for 4 hrs in presence of formaldehyde using [gamma-32P]ATP by phosphorimaging analysis relative to control
# Type: nucleic-acid assay
Calls of active or inactive are those of the source. The calls are words filed in the database; no cut-off is given here.
measure name: Activity

Some solved cases for reference:
NCCNc1ccc(NCCN)c2c1C(=O)c1c(O)ccc(O)c1C2=O; < 55%
NCCCCCNc1ccc(F)c2c1C(=O)c1c(O)ccc(O)c1C2=O; 10%
NCCCCCNc1ccc(NCCCCCN)c2c1C(=O)c1c(O)ccc(O)c1C2=O; 30%
NCCNCCNc1ccc(F)c2c1C(=O)c1c(O)ccc(O)c1C2=O; Active

Turning now to a further record.
Could you tell me which Activity is on file for NCCNCCNc1ccc(NCCNCCN)c2c1C(=O)c1c(O)ccc(O)c1C2=O ? Active
